# key: entry, value: pIC50
Molecular target: EPAC1-CNB (Homo sapiens, UniProt O95398)
Construct: EPAC1-CNB (amino acids 169–318 of EPAC1); made in house; host or cells: BL-21 Escherichia coli (pGEX-6P-1)
Sequence (O95398 169-318 isoform O95398-3): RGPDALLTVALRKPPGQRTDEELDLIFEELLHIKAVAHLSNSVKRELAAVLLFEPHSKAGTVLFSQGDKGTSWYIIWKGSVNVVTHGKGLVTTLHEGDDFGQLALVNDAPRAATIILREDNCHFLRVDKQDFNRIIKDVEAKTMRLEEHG
Experiment: 8-NBD-cAMP competition assay with EPAC1-CNB
Type: binding
Details: 8-NBD-cAMP 62.5 nM, EPAC1-CNB 0.8 µM; known competitor compounds; read-out: IC50, inhibition of 8-NBD-cAMP fluorescence
pIC50: −log10 of the molar value.

molecule	system.name	pIC50
CO[C@@H]1[C@@H]2OP(=O)(O)OC[C@H]2O[C@H]1n1c(Sc2ccc(Cl)cc2)nc2c(N)ncnc21 [compound 007, 8-pCPT-2′-O-Me-cAMP, reference compound]	EPAC1-CNB (Homo sapiens, UniProt O95398)	5.78
Nc1ncnc2c1nc(Sc1ccc(Cl)cc1)n2[C@@H]1O[C@@H]2COP(=O)(O)O[C@H]2[C@H]1O [8-CPT, 8-CPT-cAMP, reference compound]	EPAC1-CNB (Homo sapiens, UniProt O95398)	6.28

----------
Molecular target: EPAC1-CNB (Homo sapiens)
Construct: EPAC1-CNB (amino acids 169–318 of EPAC1); made in house; host or cells: BL-21 Escherichia coli (pGEX-6P-1)
Experiment: 8-NBD-cAMP competition assay with EPAC1-CNB
Type: binding
Conditions: IC50, 8-NBD-cAMP binding assay, 7-point dose response, 75 µM top concentration, 0.75% DMSO

molecule	IC50
Cc1ccc(S(=O)(=O)NC(=O)COc2ccc3ccccc3c2)c(C)c1 [I942]	~35 µM

----------
Target: EPAC1-CNB (Homo sapiens)
Construct: EPAC1-CNB (amino acids 169–318 of EPAC1); made in house; host or cells: BL-21 Escherichia coli (pGEX-6P-1)
Experiment: 8-NBD-cAMP competition assay with EPAC1-CNB
Format: binding
pKd: −log10 of the molar value.
assay.metric: pKd

compound	result
Cc1ccc(S(=O)(=O)NC(=O)COc2ccc3ccccc3c2)c(C)c1 [I942]	~4.40

The measurements presented in this section are drawn from paper PMC5428521.
